src = ChEMBL document CHEMBL2311485

Target: Tissue factor (Homo sapiens)
Sequence (P13726 whole entry): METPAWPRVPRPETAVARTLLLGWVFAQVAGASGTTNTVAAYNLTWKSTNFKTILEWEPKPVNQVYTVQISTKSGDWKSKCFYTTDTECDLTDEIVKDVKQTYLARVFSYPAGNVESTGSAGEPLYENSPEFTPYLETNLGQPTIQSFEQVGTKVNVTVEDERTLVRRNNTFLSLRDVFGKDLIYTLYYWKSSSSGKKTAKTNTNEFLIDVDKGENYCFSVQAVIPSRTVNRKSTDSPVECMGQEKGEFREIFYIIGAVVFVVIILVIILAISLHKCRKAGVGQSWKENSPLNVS
Test: Inhibition of tissue factor procoagulant activity in LPS-stimulated human THP1 cells preincubated for 1 hr before LPS addition measured after 5 hrs
measure: IC50 (nM)
Unit nM implied. Number only.

Ask: Hello, I am looking for reported IC50 with Tissue factor (Homo sapiens) for `COc1cc2c(cc1O)[C@@H]1Cc3ccc(O)c(OC)c3CN1CC2` . Could you help?
Reply: 105
